Experiment: In vitro microsomal stability, rat liver microsomes
Assay type: in vitro ADME
Settings: remaining fraction after 30 min; 1 μM compound, 0.5 mg/mL rat liver microsomes, 1 mM NADPH
Rule for this label: T means Rem. @ rLM (%) is less than 60%; F means Rem. @ rLM (%) is at least 60%.

Exercise: Find out if reported Rem. @ rLM (%) for "Cc1c(NC(=O)c2cc(-c3ccccn3)on2)cnn1[C@H](C)c1ccc(C(F)(F)F)cc1C(F)(F)F" is less than 60%
Solution: F

Exercise: Find out if reported Rem. @ rLM (%) for CC(c1ccc(C(F)(F)F)cc1C(F)(F)F)n1cc(NC(=O)c2cc(-c3ccco3)on2)cn1 (stereo not drawn) [Compound 12] is less than 60%
Solution: T

Exercise: Find out if reported Rem. @ rLM (%) for "C[C@H](c1ccc(C(F)(F)F)cc1C(F)(F)F)n1cc(NC(=O)c2cn(-c3ccccn3)nn2)cn1" is less than 60%
Solution: F

Exercise: Find out if reported Rem. @ rLM (%) for "O=C(Nc1cnn(Cc2ccc(C(F)(F)F)cc2C(F)(F)F)c1)c1cc(-c2cnccn2)on1" is less than 60%
Solution: F

Exercise: Find out if reported Rem. @ rLM (%) for "C[C@H](c1ccc(C(F)(F)F)cc1C(F)(F)F)n1cc(NC(=O)c2cnc(-c3ccccn3)s2)cn1" is less than 60%
Solution: F

Exercise: Find out if reported Rem. @ rLM (%) for CC(c1ccc(C(F)(F)F)cc1C(F)(F)F)n1cc(NC(=O)c2cnc(-c3ccccn3)s2)cn1 (stereo not drawn) is less than 60%
Solution: F
